biological target: E. coli DNA gyrase (Escherichia coli, UniProt P0AES4+P0AES6); assay: E. coli DNA gyrase inhibition (agarose gel-based and/or SDFQ-based, not specified per value); format: biochemical; conditions: Table 2 values; read-out: IC50 ( ≤15 μM) IC50
This listing pairs molecules with measured IC50.
measurement-type: IC50 (µM)

>>> print(df.to_string())
                               given_smiles  numeric_result
0       Cc1c2cc(O)c(=O)cc-2oc2cc(O)c(O)cc12            5.28
1  Cc1c(CCC(=O)O)c(=O)oc2cc3occ(-c4ccc(Br)cc4)c3cc12            11.2
2  O=[N+]([O-])c1cc(/C=N/Nc2nc3ccccc3[nH]2)c(O)cc1O            6.25
3  O=C1OC2(c3ccccc31)c1cc(I)c(O)c(I)c1Oc1c2cc(I)c(O)c1I            3.12
4  Cc1c(CCC(=O)O)c(=O)oc2c(C)c3occ(-c4ccc(Br)cc4)c3cc12            4.28
5  Cc1c(CCC(=O)O)c(=O)oc2cc3occ(-c4ccc(Cl)cc4)c3cc12            10.6
6  COc1cc(/C=N/N=c2\[nH]c3ccccc3s2)cc([N+](=O)[O-])c1O            1.56
7  Cc1cc(C)c2c(c1)C(=NNc1ccc(C(=O)O)cc1)C(O)=N2            1.69

----------
biological target: Mtb DNA gyrase (Mycobacterium tuberculosis, UniProt P9WG45+P9WG47); test: Mtb DNA gyrase inhibition; format: biochemical
Sequence (P9WG45 whole entry): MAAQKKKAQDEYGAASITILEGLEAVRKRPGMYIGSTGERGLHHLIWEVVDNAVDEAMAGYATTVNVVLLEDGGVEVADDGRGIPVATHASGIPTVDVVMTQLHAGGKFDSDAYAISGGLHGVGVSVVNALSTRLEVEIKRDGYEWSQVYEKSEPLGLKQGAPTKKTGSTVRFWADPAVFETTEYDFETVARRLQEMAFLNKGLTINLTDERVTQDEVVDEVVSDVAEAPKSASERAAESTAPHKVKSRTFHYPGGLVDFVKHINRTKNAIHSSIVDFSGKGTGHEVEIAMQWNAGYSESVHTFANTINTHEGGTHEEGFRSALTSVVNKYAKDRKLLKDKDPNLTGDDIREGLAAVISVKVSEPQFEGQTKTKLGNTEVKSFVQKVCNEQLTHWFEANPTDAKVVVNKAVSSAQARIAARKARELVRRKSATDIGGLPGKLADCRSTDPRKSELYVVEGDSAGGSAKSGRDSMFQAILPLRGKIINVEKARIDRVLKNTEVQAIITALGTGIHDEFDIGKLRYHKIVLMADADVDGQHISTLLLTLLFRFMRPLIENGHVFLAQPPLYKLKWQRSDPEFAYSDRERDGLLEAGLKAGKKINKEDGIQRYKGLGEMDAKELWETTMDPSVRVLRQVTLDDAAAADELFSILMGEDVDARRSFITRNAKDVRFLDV
Sequence (P9WG47 whole entry): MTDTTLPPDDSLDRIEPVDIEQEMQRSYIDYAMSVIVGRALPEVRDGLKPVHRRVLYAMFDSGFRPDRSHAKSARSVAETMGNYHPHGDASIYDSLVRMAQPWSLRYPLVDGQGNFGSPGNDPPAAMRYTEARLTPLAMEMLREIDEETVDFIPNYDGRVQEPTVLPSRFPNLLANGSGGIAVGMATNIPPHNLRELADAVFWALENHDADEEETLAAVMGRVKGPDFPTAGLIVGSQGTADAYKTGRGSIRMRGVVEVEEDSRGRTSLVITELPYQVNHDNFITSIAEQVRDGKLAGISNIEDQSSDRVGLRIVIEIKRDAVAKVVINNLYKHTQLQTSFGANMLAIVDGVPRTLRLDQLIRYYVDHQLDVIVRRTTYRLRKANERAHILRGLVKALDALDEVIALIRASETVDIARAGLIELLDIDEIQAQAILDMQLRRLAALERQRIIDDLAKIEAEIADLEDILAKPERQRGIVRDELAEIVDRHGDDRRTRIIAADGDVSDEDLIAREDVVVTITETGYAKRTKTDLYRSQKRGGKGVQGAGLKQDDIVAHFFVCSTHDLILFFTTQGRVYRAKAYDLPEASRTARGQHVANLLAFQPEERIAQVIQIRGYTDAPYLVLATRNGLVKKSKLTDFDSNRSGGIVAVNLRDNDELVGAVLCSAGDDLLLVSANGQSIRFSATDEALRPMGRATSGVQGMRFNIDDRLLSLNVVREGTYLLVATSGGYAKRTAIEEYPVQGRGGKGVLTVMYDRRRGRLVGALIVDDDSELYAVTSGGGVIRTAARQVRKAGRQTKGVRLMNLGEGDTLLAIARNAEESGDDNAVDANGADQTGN
measurement-type: inhibition of Mtb DNA gyrase activities

>>> print(df.to_string())
                                   molecule           result
0  CNC(=O)[C@H]1O[C@@H](n2cnc3c(NCc4ccc(N)cc4)ncnc32)[C@H](O)[C@@H]1O [AB-MECA, reference compound]  did not inhibit
1  CNC(=O)[C@H]1O[C@@H](n2cnc3c(NCc4cccc(I)c4)ncnc32)[C@H](O)[C@@H]1O  did not inhibit
2  CNC(=O)[C@H]1O[C@@H](n2cnc3c(NCc4cccc(I)c4)nc(Cl)nc32)[C@H](O)[C@@H]1O [chloro-IB-MECA, reference compound]  did not inhibit

----------
tested on: J774; assay: Cytotoxicity in J774 cells; assay type: cell-based; settings: Mus musculus, J774; highest concentration 200 μM
measurement-type: IC50

>>> print(df.to_string())
                               given_smiles    result
0  Cc1c(CCC(=O)O)c(=O)oc2cc3occ(-c4ccc(Br)cc4)c3cc12  > 200 µM

----------
tested on: Mtb; test: Mtb inhibition (antibacterial activity); format: cell-based, Mycobacterium tuberculosis
measurement-type: activity against Mtb

In [3]: df
Out[3]:
                                   compound  assay_target      measurement_type               result
0  Cc1c(CCC(=O)O)c(=O)oc2c(C)c3occ(-c4ccc5ccccc5c4)c3cc12           Mtb  activity against Mtb  most active for Mtb
1  CSc1nc(SCC(=O)O)c2sc3nc(-c4ccccc4)c4c(c3c2n1)CCC4           Mtb  activity against Mtb      Mtb active hits
2  Cc1c(CCC(=O)O)c(=O)oc2cc3occ(-c4ccc(Br)cc4)c3cc12           Mtb  activity against Mtb  most active for Mtb
3  Cc1cccc2c1N=C(O)C2/N=N/c1ccc(C(=O)O)cc1 (centres unmarked)           Mtb  activity against Mtb      Mtb active hits
4  O=C(O)c1cccc(-c2ccc(/C=c3/sc4nc5ccccc5n4c3=O)o2)c1           Mtb  activity against Mtb      Mtb active hits
5  Cc1c(CCC(=O)O)c(=O)oc2c(C)c3occ(-c4ccc(-c5ccccc5)cc4)c3cc12           Mtb  activity against Mtb  most active for Mtb
6  O=C(O)c1ccc(/N=N/C2C(O)=Nc3ccc(F)cc32)cc1 (centres unmarked)           Mtb  activity against Mtb      Mtb active hits
7  COc1cc(/C=N/N=c2\[nH]c3ccccc3s2)cc([N+](=O)[O-])c1O           Mtb  activity against Mtb      Mtb active hits
